assay: Specific activity of purified CHI, absorbance decrease at 384 nm, hesperetin chalcone; format: biochemical; settings: purified CHI in 50 mM PBS, 100 μM substrate, 25° C. Note: unit not given here.
Field: Specific activity, Hesperetin chalcone. Provide a value for each of the molecules that follow.
Give bare numbers.

- MOLECULE: "CHIera Mut5: Chalcone isomerase variant 5 from Eubacterium ramulus, genetically engineered (protein, listed as Eubacterium ramulus) MADFKFEPMRSLIYVDCVSEDYRPKLQRWIYKVHIPDSISKFEPYVTKYAFYPSFPIPPQGDRFGYARMQLTEHHWLVSPLDPRLEINAIAETFPMDVLVWQGQIPAAAHTDAQIDSDGDAGRAAKKSNNAEGNPFIFAFLPMWWEKDLKGKGRTIEDGANYRFNMTIGFPEGVDKAEGEKWLFEKVVPILQAAPECTRVLASAVKKDINGCVMDWVLEIWFENQSGWYKVMVDDMKALEKPSWAQQDAFPFLKPYHNVCSAAVADYTPSNNLANYRGYITMR"
  Specific activity, Hesperetin chalcone: 4.5

Field: next molecule
Requested read-out: Specific activity, Hesperetin chalcone. Entry: CHI5: Chalcone isomerase from Parasporobacterium paucivorans, access no. WP_073993359.1 (protein, Parasporobacterium paucivorans) GPEFQPMRSLIYVDCVKEEYRHRLQNWLYHYHVPDSISQFAPYVSKYCFYNALPTPPEGERFGTIRQQLTEHYWMVNPFTEHFKNKALTEYFPCDVLKWQGNIPDDDLEVNFEGDEARSKGGHNGCAPFIFAFLPLCWEEDFKGKERTIENGPNYRWNFVMKYPEGTSMEEGDKWFYEKMIPAFQEMPEVTRILTSKVIQSINGCAFHRVVEMWFDGPNAWYQAAVVKAKNIEKPSWASVDAFPYLQATFEFDGIFLTDYAASDNMSQYRGYLAMR
84.5
